Attribute: relative viability
system: NCI-H2347; experiment: relative viability (nuclei count vs DMSO), 5 days (fraction); higher = more cells survive; details: first compound 0.8 µM
I'd appreciate a reply containing only the number, no unit.

Illustrative cases are given below, each with its answer.
compound | measured.on | relative viability
CCCCCCCCCCCC1=C(O)C(=O)C=C(O)C1=O [Embelin] + C[C@]1(O)C[C@@H](c2nc(-c3ccc4ccc(-c5ccccc5)nc4c3)c3c(N)nccn32)C1 [Linsitinib] (partner 1 µM) | NCI-H2347 | 1.03
CCCCCCCCCCCC1=C(O)C(=O)C=C(O)C1=O [Embelin] + CCNC(=O)c1noc(-c2cc(C(C)C)c(O)cc2O)c1-c1ccc(CN2CCOCC2)cc1 [Luminespib] (partner 0.01 µM) | NCI-H2347 | 0.489
CCCCCCCCCCCC1=C(O)C(=O)C=C(O)C1=O [Embelin] + Cc1nc(Nc2ncc(C(=O)Nc3c(C)cccc3Cl)s2)cc(N2CCN(CCO)CC2)n1 [Dasatinib] (partner 0.075 µM) | NCI-H2347 | 0.33

As a next step, examine the compound that follows.
Query block: Fill in: relative viability of CCCCCCCCCCCC1=C(O)C(=O)C=C(O)C1=O [Embelin] + Cc1cc(Nc2cc(N3CCN(C)CC3)nc(Sc3ccc(NC(=O)C4CC4)cc3)n2)n[nH]1 [Tozasertib] (partner 0.1 µM) is ___
Result block: 0.465
